Numbers sourced from PubChem BioAssay (NCI).

Test system: T-47D breast
protocol description: NCI tumour cell line growth inhibition, 48 h
endpoint: GI50

Req: Test system T-47D breast; read-out GI50; what value for CC(=O)n1c(-c2ccc(Cl)cc2)nc2c(c1=O)C(c1ccc(Cl)cc1)c1sc3c(Cl)cccc3c1O2 (centres undefined) ?
Resp: 0.48 µM

Req: Test system T-47D breast; read-out GI50; what value for COC(=O)NC/C=C\c1nc(CC/C=C\C(=O)OC2CC3CC(=O)O[C@@H](/C=C/CC(C)C)C[C@@H]4CCC(C)C(C[C@@H](OC)CC(C2)O3)O4)co1 (some centres undefined) ?
Resp: 45.7 µM

Req: Test system T-47D breast; read-out GI50; what value for O=P(O)(O)C(O)(Cn1ccnc1)P(=O)(O)O ?
Resp: > 79 µM

Req: Test system T-47D breast; read-out GI50; what value for Oc1ccc(Cc2ccccc2)c2cccnc12 ?
Resp: 3.6 µM

====

Give TGI for every item shown.
Tested on: HCT-15 colon
protocol description: NCI tumour cell line growth inhibition, 48 h

Req: Sample CCOC(=O)Cc1nn2c(=O)cc(C)nc2s1 — what was its TGI?
Resp: > 100 µM

Req: Sample Cc1ccc(-n2cc(-c3ccc(Cl)cc3)c3c2N=CN2NC(c4ccco4)=NC32)cc1 (stereo not given) — what was its TGI?
Resp: > 100 µM

Req: Sample CCOC(=O)c1[nH]c2nc(SC)nc(NC)c2c1N — what was its TGI?
Resp: > 100 µM

Req: Sample COCC(=O)OC1CCn2c1nc1c2C(=O)C(C)=C(NC(C)=O)C1=O (stereo not given) — what was its TGI?
Resp: 30.1 µM

Req: Sample O=C(c1ccccc1)[C@H]1Nc2cnccc2C2c3ccccc3CC21 (stereo not given in full) — what was its TGI?
Resp: 26.9 µM

Req: Sample COc1cc(/C=C/C(=N\NC(=O)c2ccccc2)c2sc(Nc3ccc(Cl)c(Cl)c3)nc2C)ccc1O — what was its TGI?
Resp: > 100 µM

Req: Sample C[C@H]1CCC/C=C/[C@@H]2C[C@H](N)C[C@H]2[C@H](O)/C=C/C(=O)O1 — what was its TGI?
Resp: > 100 µM

Req: Sample CC1CCCC(C(=O)/C(=C/c2cccc(Cl)c2)C(=O)C(=O)O)C1 (stereo not given) — what was its TGI?
Resp: 28.2 µM

Req: Sample O=C1c2ccccc2-c2c1c1ccccc1c(=O)n2CCNCCCNCCn1c2c(c3ccccc3c1=O)C(=O)c1ccccc1-2 — what was its TGI?
Resp: 0.334 µM

Req: Sample Cc1cccc(NC(Nc2cccc(C)c2)=C(C(Cl)=C(Cl)Cl)[N+](=O)[O-])c1 — what was its TGI?
Resp: 33.1 µM

====

Test system: SF-539 CNS
protocol description: NCI tumour cell line growth inhibition, 48 h; in the data active = GI50 below about 0.43 µM; inactive = the rest
Pick one and only one: active, inactive

Req: Check the results log: what was the call for FC(F)(F)c1ccc2c(Nc3cccc(C4CC(c5ccccc5)=NN4c4ccc(Cl)cc4)c3)ccnc2c1 (stereo not given) ?
Resp: inactive

Req: Check the results log: what was the call for CC1=Nc2c(ccc3c2C(=O)c2ccccc2C3=O)NC(c2ccncc2)C1 (stereo not given) ?
Resp: inactive

Req: Check the results log: what was the call for CCCSc1cc(Cl)nc(N)n1 ?
Resp: inactive

Req: Check the results log: what was the call for N#Cc1c(-c2ccccc2)nc2c(c(-c3ccccc3)nn2-c2ccccc2)c1-c1ccc(O)cc1 ?
Resp: inactive

Req: Check the results log: what was the call for CS(=O)(=O)Nc1ccc(-c2ccc3c(NC(=O)C4CC4)n[nH]c3c2)cc1 ?
Resp: inactive

Req: Check the results log: what was the call for NC(N)=N/N=C/c1c(-c2ccccn2)nc2sc(Cl)cn12 ?
Resp: inactive

Req: Check the results log: what was the call for COc1ccc2c(c1)C=CC(C#N)N2C(=O)c1ccccc1 (stereo not given) ?
Resp: active

Req: Check the results log: what was the call for CN(C)c1nc(-c2cccs2)n2nc(-c3ccc(Cl)cc3)cc2n1 ?
Resp: inactive

Req: Check the results log: what was the call for Cc1noc(C)c1-c1ccc2[nH]c(=O)n3c2c1OC[C@@H]3c1ccccn1 ?
Resp: inactive

Req: Check the results log: what was the call for Cc1ncc(NC(=O)c2ccc(CN3CCN(C)CC3)c(C(F)(F)F)c2)cc1Nc1nccc(-c2cccnc2)n1 ?
Resp: inactive

====

Tested on: A498 renal
protocol description: NCI tumour cell line growth inhibition, 48 h
Give TGI for every item shown.

Req: Sample CCOC(=O)c1c(NC(=S)Nc2ccc(C)cc2)sc2c1CCN(C)C2 — what was its TGI?
Resp: > 100 µM

Req: Sample CCCC[C@@H]1CCN2C[C@@H](O)[C@@H](O)[C@H]2[C@@H]1O — what was its TGI?
Resp: > 100 µM

Req: Sample Cc1c(-c2nc(N)nc(C3CC3)c2C)nc(N)nc1C1CC1 — what was its TGI?
Resp: > 100 µM

Req: Sample COC(=O)[C@H]1C=C[C@H](OC2OC(COC(C)=O)C(OC(C)=O)C(OC(C)=O)C2OC(C)=O)n2c(=O)n(-c3ccccc3)c(=O)n21 (stereo not given in full) — what was its TGI?
Resp: 17.6 µM

Req: Sample COc1ccc(C2C(N)=NCC2c2ccccn2)cc1 (stereo not given) — what was its TGI?
Resp: > 100 µM

Req: Sample O=c1c2cc3c(=O)n(CCc4ccccc4CO)c(=O)c3cc2c(=O)n1CCc1ccccc1CO — what was its TGI?
Resp: > 100 µM

Req: Sample NC(=S)N=Nc1c(O)cc(Nc2ccc(Cl)cc2Cl)c2ccccc12 — what was its TGI?
Resp: > 100 µM

Req: Sample COc1cc2c3c(n(CCCN4CCC(N)CC4)c(=O)c2cc1OC)-c1cc2c(cc1C3=O)OCO2 — what was its TGI?
Resp: 10.8 µM

Req: Sample CC1CCCC(C(=O)/C(=C/c2cccc(Cl)c2)C(=O)C(=O)O)C1 (stereo not given) — what was its TGI?
Resp: > 100 µM

Req: Sample CC1(C)OC(CCO)CN1C(=O)OCc1ccccc1 (stereo not given) — what was its TGI?
Resp: > 100 µM

====

Tested on: RXF 393 renal
protocol description: NCI tumour cell line growth inhibition, 48 h
Give TGI for every item shown.

Req: Sample C=CC(=O)N1CCN(c2ncnc3c(F)c(-c4c(O)cccc4F)c(Cl)cc23)CC1 — what was its TGI?
Resp: 14.7 µM

Req: Sample Clc1ccc(OCc2nnc3n2N=C(c2ccc(Cl)cc2Cl)CS3)c(Cl)c1 — what was its TGI?
Resp: 25.4 µM

Req: Sample COc1cc2c3c(n(C)c(=O)c2cc1OC)-c1cc2c(cc1/C3=C/CCCCBr)OCO2 — what was its TGI?
Resp: > 100 µM

Req: Sample CNC(=O)c1ccc(-c2cnc3ncc(Cc4ccc5ncccc5c4)n3n2)cc1F — what was its TGI?
Resp: > 100 µM

Req: Sample O=C1c2c(c3c4ccc(Br)cc4oc3c3[nH]c4ccccc4c23)C(=O)N1O — what was its TGI?
Resp: 6.34 µM

Req: Sample NS(=O)(=O)c1nnc(NSc2ccc([N+](=O)[O-])cc2)s1 — what was its TGI?
Resp: > 100 µM

Req: Sample CC(=O)[CH-]C(C)=O.CC(=O)[CH-]C(C)=O.N=CC=N.[Sn+2] — what was its TGI?
Resp: 3.34 µM

Req: Sample N#Cc1c(-c2ccccc2)nc2c(c(-c3ccccc3)nn2-c2ccccc2)c1-c1ccc(O)cc1 — what was its TGI?
Resp: 2.35 µM

Req: Sample CC1=CCC[C@H]2[C@](C)(CC3=CC(=O)C4SCCSC4C3=O)[C@@H](C)CC[C@]12C (stereo not given in full) — what was its TGI?
Resp: 44.8 µM

Req: Sample O=S1(=O)c2ccccc2NC(=S)N1c1ccccc1 — what was its TGI?
Resp: > 100 µM

====

System: K-562 leukemia
protocol description: NCI tumour cell line growth inhibition, 48 h
Give TGI for every item shown.

Req: Sample Cc1ncc(NC(=O)c2ccc(CN3CCN(C)CC3)c(C(F)(F)F)c2)cc1Nc1nccc(-c2cccnc2)n1 — what was its TGI?
Resp: > 100 µM

Req: Sample CC(C)(C)C1(O)Cc2ccccc2C(=O)O1 (configuration not stated) — what was its TGI?
Resp: > 100 µM

Req: Sample COC(=O)C(Cc1ccccc1)N/C=C\C(=O)c1ccc(Cl)cc1 (configuration not stated) — what was its TGI?
Resp: > 100 µM

Req: Sample CC1=Nc2c(ccc3c2C(=O)c2ccccc2C3=O)NC(c2ccncc2)C1 (configuration not stated) — what was its TGI?
Resp: > 100 µM

Req: Sample NCCN1CCN(c2nccc(-c3ccc4ccccc4c3)n2)CC1 — what was its TGI?
Resp: 4.09 µM

Req: Sample CCC1C(=O)OCc2c1cc1n(c2=O)CCC12OCCO2 (configuration not stated) — what was its TGI?
Resp: > 100 µM

Req: Sample NNC(=O)c1cccc2c1Oc1ccccc1S2 — what was its TGI?
Resp: > 100 µM

Req: Sample CCc1cc(=O)n(/C(C)=C/c2ccccc2)n1C — what was its TGI?
Resp: > 100 µM

Req: Sample CC1OC(n2cc(F)c(=O)[nH]c2=O)C(O[Si](C)(C)C(C)(C)C)C1O[Si](C)(C)C(C)(C)C (configuration not stated) — what was its TGI?
Resp: 36.1 µM

Req: Sample CCN(CC)C(=S)SS(=O)(=O)c1ccc(C)cc1 — what was its TGI?
Resp: > 100 µM

Req: Sample Cc1cn(C2CC(OC(c3ccccc3)(c3ccccc3)c3ccccc3)C(COC(c3ccccc3)(c3ccccc3)c3ccccc3)O2)c(=O)[nH]c1=O (configuration not stated) — what was its TGI?
Resp: > 100 µM

Req: Sample Clc1cccc(C2ON=C(c3ccccc3)N2C23CC4CC(CC(C4)C2)C3)c1Cl (configuration not stated) — what was its TGI?
Resp: > 10 µM

Req: Sample COc1cc2c3c(n(CCCN4CCC(N)CC4)c(=O)c2cc1OC)-c1cc2c(cc1C3=O)OCO2 — what was its TGI?
Resp: 6.91 µM

Req: Sample CCN(Cc1c(F)cccc1F)c1ccc(CO)c(Cl)c1 — what was its TGI?
Resp: 28.2 µM

Req: Sample COc1ccc(/C=N/Nc2nc3ccccc3c(=O)n2-c2ccccc2)c(OCc2ccccc2)c1 — what was its TGI?
Resp: > 100 µM

Req: Sample COc1ccc(C2C(N)=NCC2c2ccccn2)cc1 (configuration not stated) — what was its TGI?
Resp: > 100 µM

Req: Sample Cc1ccc(-n2cc(-c3ccc(Cl)cc3)c3c2N=CN2NC(c4ccco4)=NC32)cc1 (configuration not stated) — what was its TGI?
Resp: > 100 µM

Req: Sample CCOC(=O)c1[nH]c2nc(SC)nc(NC)c2c1N — what was its TGI?
Resp: > 100 µM

Req: Sample Nc1n[nH]c2ccccc12 — what was its TGI?
Resp: > 100 µM

Req: Sample COc1cc2c(cc1O)CC[n+]1cc3c(OC)c(OC)ccc3cc1-2 — what was its TGI?
Resp: > 100 µM

Req: Sample CNC(=O)c1ccc(-c2cnc3ncc(Cc4ccc5ncccc5c4)n3n2)cc1F — what was its TGI?
Resp: > 100 µM

Req: Sample COc1cc(OC)c(C2c3cc4c(cc3OC(N3CCOCC3)C2C)OCO4)c(OC)c1 (configuration not stated) — what was its TGI?
Resp: > 100 µM
